pKi for assorted compounds
Target: Substance-K receptor (Homo sapiens, UniProt P21452)
Sequence (P21452 whole entry): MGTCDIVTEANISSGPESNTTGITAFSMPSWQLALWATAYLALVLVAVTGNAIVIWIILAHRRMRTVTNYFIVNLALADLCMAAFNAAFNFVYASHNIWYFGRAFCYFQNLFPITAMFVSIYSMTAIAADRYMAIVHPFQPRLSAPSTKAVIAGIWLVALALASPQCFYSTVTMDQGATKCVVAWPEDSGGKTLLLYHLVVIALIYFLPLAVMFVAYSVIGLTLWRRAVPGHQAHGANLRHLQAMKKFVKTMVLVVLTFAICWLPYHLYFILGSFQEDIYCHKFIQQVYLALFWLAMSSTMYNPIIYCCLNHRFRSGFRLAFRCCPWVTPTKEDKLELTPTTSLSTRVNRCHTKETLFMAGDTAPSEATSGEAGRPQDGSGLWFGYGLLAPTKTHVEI
Non-standard residues stand in square brackets, D forms with d. Residues, ends and D or L forms follow the SMILES beside them. ξ: configuration not given here. *: point of attachment. NBD = O=[N+]([O-])c1ccc(*)c2nonc12; Nle = CCCC[C@H](N)C(=O)O; ξDab = NCCC(N)C(=O)O; Bz = O=C(c1ccccc1)*
Please express pKi as -log10 of the molar concentration.

[
  {
    "Compound": "CCCC[C@H](NC(=O)[C@@H]1CCCN1C(=O)[C@H]1CCCN1C(=O)[C@H](Cc1ccccc1)NC(=O)[C@@H](Cc1c[nH]c2ccccc12)NC(=O)[C@H](C)NC(=O)[C@H](C)NC(=O)c1ccccc1)C(N)=O (Bz-AA[dW]F[dP]P[Nle]-NH2)",
    "pKi": 9.81
  }
]

With those in mind, consider the next compound.
Input: Specify pKi for CCCC[C@H](NC(=O)[C@H](CC(C)C)NC(=O)CNC(=O)C(CCNc1ccc([N+](=O)[O-])c2nonc12)NC(=O)[C@H](Cc1ccccc1)NC(=O)[C@H](CO)NC(=O)[C@H](CC(=O)O)NC(C)=O)C(N)=O (some centres not stated) (Ac-DSF[ξDab](NBD)GL[Nle]-NH2) , system Substance-K receptor (Homo sapiens, UniProt P21452).
Output: 5.71

Reference source: ChEMBL document CHEMBL3351524
